// provenance: paper PMC11947346

# ASSAY PROCEDURE: in vivo
# MEASUREMENT CONDITIONS: Balb/c nu/nu, mouse, bone, 48 pmol, total radioactivity
# Protocol: [^18F]MeTz-PEG2-RM26 (8a) (30 kBq, 40 pmol) was evaluated in NMRI mice to assess the biodistribution in normal organs. A group of NMRI mice (n = 3) was additionally co-injected with 5 nmol of NOTA-PEG2-RM26 to block GRPR. Mice were euthanised at 30 min post-injection (pi) and the organs of interest were collected, weighed, and measured for their radioactivity content. […] The collected organs were weighed and the radioactivity content was measured in each organ.

{"MOLECULE": "CC1=NNC(c2ccc(CNC(=O)c3ccc(F)nc3)cc2)=C2CCC[C@H](OC(=O)NCCOCCOCCC(=O)N[C@H](Cc3ccccc3)C(=O)N[C@@H](CCC(N)=O)C(=O)N[C@@H](Cc3c[nH]c4ccccc34)C(=O)N[C@@H](C)C(=O)N[C@H](C(=O)NCC(=O)N[C@@H](Cc3c[nH]cn3)C(=O)N[C@@H](CC(C)C)[C@@H](O)CC(=O)N[C@@H](CC(C)C)C(N)=O)C(C)C)CCC12 (stereo partly shown) [8a]", "tissue uptake at 1 h": "0.8 %ID/g"}
